- assay-conditions: in toluene, 333.15 K

| structure | solubility (mole fraction) |
| --- | --- |
| CN1CCN(C2=Nc3cc(Cl)ccc3Nc3ccccc32)CC1 | 0.0202 |

----------
- assay-conditions: in benzene, 328.15 K
assay-endpoint: solubility (mole fraction)

| structure | assay-endpoint | assay-result |
| --- | --- | --- |
| CN1CCN(C2=Nc3cc(Cl)ccc3Nc3ccccc32)CC1 | solubility (mole fraction) | 0.0259 |

----------
- assay-conditions: in DMF, 298.15 K
assay-endpoint: solubility (mole fraction)

| structure | assay-result |
| --- | --- |
| CN1CCN(C2=Nc3cc(Cl)ccc3Nc3ccccc32)CC1 | 0.0936 |

----------
- assay-conditions: in DMF, 328.15 K
assay-endpoint: solubility (mole fraction)

| structure | assay-result |
| --- | --- |
| CN1CCN(C2=Nc3cc(Cl)ccc3Nc3ccccc32)CC1 | 0.155 |

----------
- assay-conditions: in n-propanol, 283.15 K
assay-endpoint: solubility (mole fraction)

| structure | assay-endpoint | assay-result |
| --- | --- | --- |
| CN1CCN(C2=Nc3cc(Cl)ccc3Nc3ccccc32)CC1 | solubility (mole fraction) | 0.00617 |

----------
- assay-conditions: in toluene, 298.15 K

| structure | solubility (mole fraction) |
| --- | --- |
| CN1CCN(C2=Nc3cc(Cl)ccc3Nc3ccccc32)CC1 | 0.00651 |

----------
- assay-conditions: in isopropanol, 298.15 K
assay-endpoint: solubility (mole fraction)

| structure | assay-result |
| --- | --- |
| CN1CCN(C2=Nc3cc(Cl)ccc3Nc3ccccc32)CC1 | 0.00327 |

----------
- assay-conditions: in NMP, 298.15 K
assay-endpoint: solubility (mole fraction)

| structure | assay-endpoint | assay-result |
| --- | --- | --- |
| CN1CCN(C2=Nc3cc(Cl)ccc3Nc3ccccc32)CC1 | solubility (mole fraction) | 0.0525 |

----------
- assay-conditions: in isopropanol, 283.15 K

| structure | solubility (mole fraction) |
| --- | --- |
| CN1CCN(C2=Nc3cc(Cl)ccc3Nc3ccccc32)CC1 | 0.00272 |

----------
- assay-conditions: in DMSO, 293.15 K
assay-endpoint: solubility (mole fraction)

| structure | assay-endpoint | assay-result |
| --- | --- | --- |
| CN1CCN(C2=Nc3cc(Cl)ccc3Nc3ccccc32)CC1 | solubility (mole fraction) | 0.0596 |

----------
- assay-conditions: in ethanol, 283.15 K
assay-endpoint: solubility (mole fraction)

| structure | assay-result |
| --- | --- |
| CN1CCN(C2=Nc3cc(Cl)ccc3Nc3ccccc32)CC1 | 0.0057 |

----------
- assay-conditions: in ethanol, 293.15 K

| structure | solubility (mole fraction) |
| --- | --- |
| CN1CCN(C2=Nc3cc(Cl)ccc3Nc3ccccc32)CC1 | 0.00644 |

----------
- assay-conditions: in n-propanol, 308.15 K

| structure | solubility (mole fraction) |
| --- | --- |
| CN1CCN(C2=Nc3cc(Cl)ccc3Nc3ccccc32)CC1 | 0.00863 |

----------
- assay-conditions: in NMP, 333.15 K

| structure | solubility (mole fraction) |
| --- | --- |
| CN1CCN(C2=Nc3cc(Cl)ccc3Nc3ccccc32)CC1 | 0.118 |

----------
- assay-conditions: in 1,2-dichloroethane, 318.15 K

| structure | solubility (mole fraction) |
| --- | --- |
| CN1CCN(C2=Nc3cc(Cl)ccc3Nc3ccccc32)CC1 | 0.0386 |

----------
- assay-conditions: in methanol, 283.15 K

| structure | solubility (mole fraction) |
| --- | --- |
| CN1CCN(C2=Nc3cc(Cl)ccc3Nc3ccccc32)CC1 | 0.00638 |

----------
- assay-conditions: in acetone, 288.15 K
assay-endpoint: solubility (mole fraction)

| structure | assay-endpoint | assay-result |
| --- | --- | --- |
| CN1CCN(C2=Nc3cc(Cl)ccc3Nc3ccccc32)CC1 | solubility (mole fraction) | 0.00914 |

----------
- assay-conditions: in DMF, 323.15 K

| structure | solubility (mole fraction) |
| --- | --- |
| CN1CCN(C2=Nc3cc(Cl)ccc3Nc3ccccc32)CC1 | 0.145 |

----------
- assay-conditions: in toluene, 328.15 K

| structure | solubility (mole fraction) |
| --- | --- |
| CN1CCN(C2=Nc3cc(Cl)ccc3Nc3ccccc32)CC1 | 0.0164 |

----------
- assay-conditions: in ethanol, 288.15 K

| structure | solubility (mole fraction) |
| --- | --- |
| CN1CCN(C2=Nc3cc(Cl)ccc3Nc3ccccc32)CC1 | 0.00581 |

----------
- assay-conditions: in methanol, 288.15 K

| structure | solubility (mole fraction) |
| --- | --- |
| CN1CCN(C2=Nc3cc(Cl)ccc3Nc3ccccc32)CC1 | 0.00648 |

----------
- assay-conditions: in DMF, 283.15 K
assay-endpoint: solubility (mole fraction)

| structure | assay-endpoint | assay-result |
| --- | --- | --- |
| CN1CCN(C2=Nc3cc(Cl)ccc3Nc3ccccc32)CC1 | solubility (mole fraction) | 0.0781 |

----------
- assay-conditions: in n-propanol, 288.15 K

| structure | solubility (mole fraction) |
| --- | --- |
| CN1CCN(C2=Nc3cc(Cl)ccc3Nc3ccccc32)CC1 | 0.00619 |

----------
- assay-conditions: in DMSO, 323.15 K
assay-endpoint: solubility (mole fraction)

| structure | assay-result |
| --- | --- |
| CN1CCN(C2=Nc3cc(Cl)ccc3Nc3ccccc32)CC1 | 0.119 |

----------
- assay-conditions: in acetone, 293.15 K

| structure | solubility (mole fraction) |
| --- | --- |
| CN1CCN(C2=Nc3cc(Cl)ccc3Nc3ccccc32)CC1 | 0.0122 |

----------
- assay-conditions: in benzene, 293.15 K

| structure | solubility (mole fraction) |
| --- | --- |
| CN1CCN(C2=Nc3cc(Cl)ccc3Nc3ccccc32)CC1 | 0.00676 |

----------
- assay-conditions: in 1,2-dichloroethane, 308.15 K

| structure | solubility (mole fraction) |
| --- | --- |
| CN1CCN(C2=Nc3cc(Cl)ccc3Nc3ccccc32)CC1 | 0.0285 |

----------
- assay-conditions: in toluene, 303.15 K
assay-endpoint: solubility (mole fraction)

| structure | assay-result |
| --- | --- |
| CN1CCN(C2=Nc3cc(Cl)ccc3Nc3ccccc32)CC1 | 0.0075 |

----------
- assay-conditions: in 1,2-dichloroethane, 283.15 K
assay-endpoint: solubility (mole fraction)

| structure | assay-endpoint | assay-result |
| --- | --- | --- |
| CN1CCN(C2=Nc3cc(Cl)ccc3Nc3ccccc32)CC1 | solubility (mole fraction) | 0.0117 |

----------
- assay-conditions: in isopropanol, 303.15 K

| structure | solubility (mole fraction) |
| --- | --- |
| CN1CCN(C2=Nc3cc(Cl)ccc3Nc3ccccc32)CC1 | 0.00374 |

----------
- assay-conditions: in DMSO, 303.15 K

| structure | solubility (mole fraction) |
| --- | --- |
| CN1CCN(C2=Nc3cc(Cl)ccc3Nc3ccccc32)CC1 | 0.0709 |

----------
- assay-conditions: in ethanol, 328.15 K
assay-endpoint: solubility (mole fraction)

| structure | assay-result |
| --- | --- |
| CN1CCN(C2=Nc3cc(Cl)ccc3Nc3ccccc32)CC1 | 0.0128 |

----------
- assay-conditions: in toluene, 308.15 K

| structure | solubility (mole fraction) |
| --- | --- |
| CN1CCN(C2=Nc3cc(Cl)ccc3Nc3ccccc32)CC1 | 0.00858 |

----------
- assay-conditions: in acetone, 313.15 K

| structure | solubility (mole fraction) |
| --- | --- |
| CN1CCN(C2=Nc3cc(Cl)ccc3Nc3ccccc32)CC1 | 0.0201 |

----------
- assay-conditions: in methanol, 303.15 K

| structure | solubility (mole fraction) |
| --- | --- |
| CN1CCN(C2=Nc3cc(Cl)ccc3Nc3ccccc32)CC1 | 0.0088 |

----------
- assay-conditions: in toluene, 313.15 K

| structure | solubility (mole fraction) |
| --- | --- |
| CN1CCN(C2=Nc3cc(Cl)ccc3Nc3ccccc32)CC1 | 0.0105 |
